Collected Papp at 5 h values appear next to each entry.
# Protocol Notes: Apparent permeability in pH 7.4 ammonium acetate buffer incubated for 5 hrs by PAMPA
# Format: ADME

Compound	Papp at 5 h
Cc1ncsc1-c1ccc(CNC(=O)[C@@H]2C[C@@H](O)CN2C(=O)[C@@H](NC(=O)CCOCCOCCOCCOc2ccc(N3C(=S)N(c4ccc(C#N)c(C(F)(F)F)c4)C(=O)C3(C)C)cc2)C(C)(C)C)cc1	< 1 ×10⁻⁶ cm/s
CC1(C)C(=O)N(c2ccc(C#N)c(C(F)(F)F)c2)C(=S)N1c1ccc(O)cc1	4.6 ×10⁻⁶ cm/s
CC(O)(COc1ccc(O)cc1)C(=O)Nc1ccc(C#N)c(C(F)(F)F)c1 (configuration not stated)	1.4 ×10⁻⁶ cm/s
Cc1ncsc1-c1ccc(CNC(=O)[C@@H]2C[C@@H](O)CN2C(=O)[C@@H](NC(=O)COCCCOCC(F)(F)C(F)(F)COc2ccc(N3C(=S)N(c4ccc(C#N)c(C(F)(F)F)c4)C(=O)C3(C)C)cc2)C(C)(C)C)cc1	< 1 ×10⁻⁶ cm/s
Cc1ncsc1-c1ccc(CNC(=O)[C@@H]2C[C@@H](O)CN2C(=O)[C@@H](NC(=O)COCCCCCOc2ccc(C(=O)N[C@H]3C(C)(C)[C@H](Oc4ccc(C#N)c(C(F)(F)F)c4)C3(C)C)cc2)C(C)(C)C)cc1	< 1 ×10⁻⁶ cm/s
Cc1ncsc1-c1ccc(CNC(=O)[C@@H]2C[C@@H](O)CN2C(=O)[C@@H](NC(=O)COCCCOCCCCCOc2ccc(N3C(=S)N(c4ccc(C#N)c(C(F)(F)F)c4)C(=O)C3(C)C)cc2)C(C)(C)C)cc1	< 1 ×10⁻⁶ cm/s
Cc1ncsc1-c1ccc(CNC(=O)[C@@H]2C[C@@H](O)CN2C(=O)[C@@H](NC(=O)CCOCCOCCOc2ccc(C(=O)N[C@H]3C(C)(C)[C@H](Oc4ccc(C#N)c(C(F)(F)F)c4)C3(C)C)cc2)C(C)(C)C)cc1	< 1 ×10⁻⁶ cm/s

Origin of values: ChEMBL document CHEMBL4619811
